- Test system: T47D
- method: Antiproliferative activity against human T47D cells assessed as cell growth at 10 uM
- Type: functional
- testContext: read-out: Activity
Criterion: growth at 10 µM strictly less than 90%. Met: met. Not met: not met.

Answered cases to consult:
INPUT: Please state whether growth at 10 µM is below 90% for Cc1ccc(-c2nc3ccc4c(c3[nH]2)C(=O)c2ccccc2C4=O)cc1
OUTPUT: met

INPUT: Same for O=C1c2ccccc2C(=O)c2c1ccc1nc(-c3ccccc3)[nH]c21
OUTPUT: met

---
INPUT: Please state whether growth at 10 µM is below 90% for O=C1c2ccccc2C(=O)c2c1ccc1nccnc21
OUTPUT: met

INPUT: Same for CN(C)c1ccc(-c2nc3ccc4c(c3[nH]2)C(=O)c2ccccc2C4=O)cc1
OUTPUT: not met

INPUT: Same for CCc1nc2ccc3c(c2[nH]1)C(=O)c1ccccc1C3=O
OUTPUT: met
